- protocol notes: Liver microsomal stability assay, HLM
- Type: in vitro ADME, human
- experimental conditions: human, human liver microsomes, pH 7.4, 0.5 mg protein/mL, read-out: Metabolic stability T1/2
reported endpoint: half-life at 1 μM (min)
Field format: number, assumed min, no unit text.

Q: Output half-life at 1 μM of COc1ncc(-c2cc(C)cn3cc(C(=O)N4CCCC4)nc23)cc1NS(=O)(=O)c1ccc(F)cc1 [Compound 35]
Ans: 45.1

Source of measurements: paper PMC9858543
